Target: EcTrmL (Escherichia coli, UniProt P0AGJ7, R43E)
Sequence (P0AGJ7 whole entry R43E): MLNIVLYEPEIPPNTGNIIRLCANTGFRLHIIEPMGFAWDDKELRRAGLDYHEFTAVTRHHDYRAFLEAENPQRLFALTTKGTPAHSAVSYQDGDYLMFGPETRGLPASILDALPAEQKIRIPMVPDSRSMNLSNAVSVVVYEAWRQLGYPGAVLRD
Assay: isothermal titration calorimetry, one-site model
ATTRIBUTE MEASURED: Kd (µM)

- MOLECULE: "Nc1ncnc2c1ncn2[C@@H]1O[C@H](CSCC[C@H](N)C(=O)O)[C@@H](O)[C@H]1O [SAH, S-adenosyl-homocysteine]"
  QUANTITY UNIT: "µM"
  OBSERVED: 39

====

Molecular target: EcTrmL (Escherichia coli, UniProt P0AGJ7, K42E)
Sequence (P0AGJ7 whole entry K42E): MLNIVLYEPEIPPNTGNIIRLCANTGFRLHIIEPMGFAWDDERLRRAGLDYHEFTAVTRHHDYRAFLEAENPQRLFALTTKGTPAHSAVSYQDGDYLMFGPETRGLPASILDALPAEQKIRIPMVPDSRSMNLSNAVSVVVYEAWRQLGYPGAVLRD
Assay: isothermal titration calorimetry, one-site model
pKd: −log10 of the molar value.

- COMPOUND: "Nc1ncnc2c1ncn2[C@@H]1O[C@H](CSCC[C@H](N)C(=O)O)[C@@H](O)[C@H]1O"
  pKd: 4.70
